Reference for the values: ChEMBL document CHEMBL3988442

- Tested on: Trypanosoma brucei
- EXPERIMENT_SUMMARY: Trypanosoma brucei 72 hour study
- Type: functional, organism-based
- Parameters: scale not given: in the data most compounds retested in dose-response had high values
- MEASUREMENT_PARAMETERS: 30 µM; 30.03 µM
Out of some 66,000 compounds screened, about 960 (1.5%) showed an effect of 50% or more. What follows is part of a selection rich in strong results, with near analogues and random picks from the rest.
VALUE_KIND: Percent Effect (%)
Quick reminder: number only, in %, skip the unit.

(Q) Please look up its Percent Effect: CN(C)c1nc(N)nc(CN2CCCC2c2ccsc2)n1 (stereo unspecified)
(A) -20.26

(Q) Please look up its Percent Effect: Cc1cc(C)cc(OCC(O)CN2CCN(c3nccs3)CC2)c1 (stereo unspecified)
(A) -27.85

(Q) Please look up its Percent Effect: Nc1cc(N2CCCC(CO)(Cc3ccccc3F)C2)nc(N)n1 (stereo unspecified)
(A) 15.39

(Q) Please look up its Percent Effect: `Cc1c(CNCc2nn(-c3ccccc3)c3c2CCC3)cc(C#N)n1C`
(A) -10.92

(Q) Please look up its Percent Effect: `C[C@@H]1CN(C(=O)c2ccsc2)C[C@]12CCN(c1ccsc1)C2=O`
(A) 49.54

(Q) Please look up its Percent Effect: `Cc1noc(C)c1CNCc1nn(-c2ccccc2)c2c1CCC2`
(A) -40.9

(Q) Please look up its Percent Effect: `Cc1cc2nc(C(C)C)cc(NCCNc3ncccc3C)n2n1`
(A) -45.75

(Q) Please look up its Percent Effect: Cc1ccc(CN2CCC3(CCC3NC(=O)c3ccn(C)c3)CC2)s1.O=C(O)C(F)(F)F (stereo unspecified)
(A) -8.436

(Q) Please look up its Percent Effect: `C[C@@H]1CN(C(=O)NC2CC2)C[C@]12CCN(c1ccsc1)C2=O`
(A) 50.13

(Q) Please look up its Percent Effect: `Cc1cc(C)cc(CN2CCN(Cc3cccc(CCN)c3)CC2=O)c1`
(A) 35.33

(Q) Please look up its Percent Effect: CCc1ccc(C(O)CN2CCN(c3cccc(OC)c3)CC2)cc1 (stereo unspecified)
(A) -8.228

====

- Tested on: Trypanosoma brucei
- EXPERIMENT_SUMMARY: Trypanosoma brucei 72 hour study
- Format: functional, organism-based
- Parameters: scale not given: in the data most compounds retested in dose-response had high values
- MEASUREMENT_PARAMETERS: 30 µM; 30.03 µM
Screen size: about 66,000 compounds; about 960 (1.5%) showed an effect of 50% or more. For the sample, strong results were picked, then their nearest neighbours and some compounds at random.
Please provide measured Percent Effect for the entries that follow.
Quick reminder: number only, in %, skip the unit.

(Q) Please look up its Percent Effect: CN1CCOC(CNCc2nc(-c3ccoc3)no2)C1 (stereo unspecified)
(A) -7.602

(Q) Please look up its Percent Effect: N#Cc1cccc(CS(=O)(=O)NCC(O)Cc2ccccc2)c1 (stereo unspecified)
(A) -15.65

(Q) Please look up its Percent Effect: COc1ccccc1CCNC(=O)C1CCC(Cn2cnnn2)CC1 (stereo unspecified)
(A) -33.08

(Q) Please look up its Percent Effect: CC(NC(=O)Nc1nccs1)C(=O)NC1CCCC1 (stereo unspecified)
(A) -0.2762

(Q) Please look up its Percent Effect: CN(C)C(=O)C1OC2(CCN(c3ncc(F)cn3)CC2)c2ccccc21.O=C(O)C(F)(F)F (stereo unspecified)
(A) -1.93

(Q) Please look up its Percent Effect: `CC(C)CCNC(=O)c1csc(NC2CC2)n1`
(A) 55.59

(Q) Please look up its Percent Effect: `Cc1cc(Cl)c(C)c(S(=O)(=O)N2CCN(Cc3ccncc3)CC2)c1Cl`
(A) -52.63

(Q) Please look up its Percent Effect: `O=C(Nc1nccs1)c1csc(NC2CCCC2)n1`
(A) 93.86

(Q) Please look up its Percent Effect: O=C(NCCc1ccccc1)C1CCC(Cn2cnnn2)CC1 (stereo unspecified)
(A) 56

(Q) Please look up its Percent Effect: `CN(C)C(=O)COC[C@H]1CC[C@@H]2[C@@H](CCN2Cc2ccco2)O1.O=C(O)C(F)(F)F`
(A) -23.12

(Q) Please look up its Percent Effect: `CC(C)NC(=O)c1csc(NC2CC2)n1`
(A) -15.9
